Reported GI50, HCT-15.

Some solved entries appear below for comparison.
CC(=O)n1cc(C2CC23N=C(c2ccccc2)OC3=O)c2ccccc21 (stereo not given) ... 20.3 µM
CN(C)c1ccc(-c2ccc(N(C)C)c3n[se]nc23)c2n[se]nc12 ... > 100 µM
COC1C(OC(=O)c2ccc(C)[nH]2)C(O)C(Oc2ccc3c(O)c(NC(=O)c4c[nH]c(C(=O)Nc5c(O)c6ccc(OC7OC(C)(C)C(OC)C(OC(=O)c8ccc(C)[nH]8)C7O)c(C)c6oc5=O)c4C)c(=O)oc3c2C)OC1(C)C (stereo not given) ... 1.88 µM

Q: Returns the measured GI50 for the input molecule. Input: ClC(Cl)=C(Cl)C1(Cl)CC1COCc1ccccc1 (stereo not given)
A: 33.3 µM

Q: Returns the measured GI50 for the input molecule. Input: C=CC(C)C1(CCCOCc2ccccc2)C(=S)N2CCC3(CC24CCCC14)OCCO3 (stereo not given)
A: > 100 µM

Q: Any idea what GI50 was measured for C[C@@H]1CC[C@@]2(C)C(C(=O)O)=CCCC2[C@@]1(C)CC(=O)c1ccoc1 (stereo not given in full) ?
A: > 25 µM

Q: GET /values?readout=GI50&item= `O=C1Nc2c(ccc(Cl)c2I)C1=O`
A: 18.9 µM

Q: // lookup GI50 for Cc1ccccc1C1OC(=O)c2ccccc21 (stereo not given)
A: > 100 µM

Q: Please report the recorded GI50 for `CCc1cccc(C)c1NC(C)=O` .
A: > 100 µM

Q: Recorded GI50 for O=C1C2CCCCC2C(=O)N1n1c(Cc2ccc(Cl)cc2)n[nH]c1=O (stereo not given) , please?
A: > 100 µM
